B1: Chromodomain-helicase-DNA-binding protein 4, residues 623 to 675; numbered along this chain, Q14839 (parent)
chain: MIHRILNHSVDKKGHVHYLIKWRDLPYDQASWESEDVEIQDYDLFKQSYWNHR

Variants of: B1
measurementDescription: abundance fitness (aPCA) (normalised: wild type 0, dead -1); higher = more abundant; growth selection in yeast, the domain comes from the species named
conditionDescription: Homo sapiens
quantity: abundance fitness
Lab note: record just the number, no unit beside it.

Here's what some known entries look like.
• W22A = -0.889
• D28L = -0.55
• L19F = -0.518
• E33A = -0.109
• D24T = -0.309

IN: Any idea what its abundance fitness is? The variant is R23I
OUT: -0.161

IN: Any idea what its abundance fitness is? The variant is Q29W
OUT: -0.589

IN: Any idea what its abundance fitness is? The variant is S31W
OUT: -0.767

IN: Any idea what its abundance fitness is? The variant is H17K
OUT: 0.094

IN: Any idea what its abundance fitness is? The variant is K13W
OUT: -0.492

IN: Any idea what its abundance fitness is? The variant is H15V
OUT: -0.122
